System: intracellular L. donovani in THP-1 macrophage host cells
Test: THP-1 macrophage infection assay: anti L. donovani activity
Details: Leishmania donovani, THP-1, read-out: IC50 (reduction of total number of parasites by 50%)
measure.name: log10 IC50 (log10 of the value in nM)

INSERT INTO results (compound, target_under_test, value_reported) VALUES
  ('Cn1c(CC(=O)NNC(=O)c2ccc(-c3cccc(C#N)c3)cn2)nc2ccccc21 [Compound 17d]', 'intracellular L. donovani in THP-1 macrophage host cells', 3.15),
  ('Cc1ccccc1-c1ccc(C(=O)NNC(=O)Cc2nc3ccccc3n2C)nc1 [Compound 17i]', 'intracellular L. donovani in THP-1 macrophage host cells', 2.60),
  ('Cn1c(CC(=O)NNC(=O)c2ccccn2)nc2ccccc21 [Compound 13b]', 'intracellular L. donovani in THP-1 macrophage host cells', 4.64),
  ('Cn1c(CC(=O)NNC(=O)c2ccc(-c3ccccc3)cn2)nc2ccccc21 [Compound 13e]', 'intracellular L. donovani in THP-1 macrophage host cells', 3.23),
  ('COc1ccccc1-c1ccc(C(=O)NNC(=O)Cc2nc3ccccc3n2C)nc1 [Compound 17f]', 'intracellular L. donovani in THP-1 macrophage host cells', 2.78),
  ('O=C(Cc1nc2ccccc2[nH]1)NNC(=O)c1ccc2ccccc2n1', 'intracellular L. donovani in THP-1 macrophage host cells', 3.77),
  ('COc1cccc(-c2ccc(C(=O)NNC(=O)Cc3nc4ccccc4n3C)nc2)c1 [Compound 17g]', 'intracellular L. donovani in THP-1 macrophage host cells', 2.78),
  ('Cn1c(CC(=O)NNC(=O)c2ccc(-c3ccc(Cl)cc3)cn2)nc2ccccc21 [Compound 17c]', 'intracellular L. donovani in THP-1 macrophage host cells', 3.00),
  ('Cn1c(CC(=O)NNC(=O)c2ccc3ccccc3n2)nc2ccccc21', 'intracellular L. donovani in THP-1 macrophage host cells', 3.28);

====

Test system: intracellular L. donovani in THP-1 macrophage host cells
Experiment: THP-1 macrophage infection assay: anti L. donovani activity
Conditions: Leishmania donovani, THP-1, read-out: IC50 (reduction of total number of parasites by 50%)
IC50 values for the compounds below.
measure.name: IC50

INSERT INTO measurements (compound, value_reported) VALUES
  ('O=C(Cc1nc2ccccc2s1)NNC(=O)c1ccc2ccccc2n1', '> 100 µM'),
  ('Cn1c(CC(=O)NNC(=O)c2ccc3ccccc3c2)nc2ccccc21 [Compound 13a]', '> 100 µM'),
  ('Cn1c(CC(=O)NNC(=O)c2ccccc2)nc2ccccc21 [Compound 13c]', '> 100 µM');

====

// values below are reported SI (CC50/IC50)
System: intracellular L. donovani in THP-1 macrophage host cells
Test: THP-1 macrophage infection assay: anti L. donovani activity
Details: THP-1 CC50 / L. donovani IC50
measure.name: SI (CC50/IC50)

INSERT INTO assay_data (molecule, value_reported) VALUES
  ('Cn1c(CC(=O)NNC(=O)c2ccc(-c3cccc(C#N)c3)cn2)nc2ccccc21 [Compound 17d]', '>74'),
  ('Cn1c(CC(=O)NNC(=O)c2ccc3ccccc3n2)nc2ccccc21 [Compound 1]', '>54'),
  ('O=C(Cc1nc2ccccc2[nH]1)NNC(=O)c1ccc2ccccc2n1 [Compound 5a]', '>17');

Reference for the values: paper PMC11375810
